Measured IC50 by item
molecular target: human EGFR (L858R/C797S) (Homo sapiens, UniProt P00533, C797S/L858R); construct: purchased SignalChem; assay: Inhibitory activity against EGFR (L858R/C797S) kinase; format: biochemical; details: Test Example 3, Table 11; same procedures as 4) in Test Example 1
Sequence (P00533 25-1210 C797S/L858R): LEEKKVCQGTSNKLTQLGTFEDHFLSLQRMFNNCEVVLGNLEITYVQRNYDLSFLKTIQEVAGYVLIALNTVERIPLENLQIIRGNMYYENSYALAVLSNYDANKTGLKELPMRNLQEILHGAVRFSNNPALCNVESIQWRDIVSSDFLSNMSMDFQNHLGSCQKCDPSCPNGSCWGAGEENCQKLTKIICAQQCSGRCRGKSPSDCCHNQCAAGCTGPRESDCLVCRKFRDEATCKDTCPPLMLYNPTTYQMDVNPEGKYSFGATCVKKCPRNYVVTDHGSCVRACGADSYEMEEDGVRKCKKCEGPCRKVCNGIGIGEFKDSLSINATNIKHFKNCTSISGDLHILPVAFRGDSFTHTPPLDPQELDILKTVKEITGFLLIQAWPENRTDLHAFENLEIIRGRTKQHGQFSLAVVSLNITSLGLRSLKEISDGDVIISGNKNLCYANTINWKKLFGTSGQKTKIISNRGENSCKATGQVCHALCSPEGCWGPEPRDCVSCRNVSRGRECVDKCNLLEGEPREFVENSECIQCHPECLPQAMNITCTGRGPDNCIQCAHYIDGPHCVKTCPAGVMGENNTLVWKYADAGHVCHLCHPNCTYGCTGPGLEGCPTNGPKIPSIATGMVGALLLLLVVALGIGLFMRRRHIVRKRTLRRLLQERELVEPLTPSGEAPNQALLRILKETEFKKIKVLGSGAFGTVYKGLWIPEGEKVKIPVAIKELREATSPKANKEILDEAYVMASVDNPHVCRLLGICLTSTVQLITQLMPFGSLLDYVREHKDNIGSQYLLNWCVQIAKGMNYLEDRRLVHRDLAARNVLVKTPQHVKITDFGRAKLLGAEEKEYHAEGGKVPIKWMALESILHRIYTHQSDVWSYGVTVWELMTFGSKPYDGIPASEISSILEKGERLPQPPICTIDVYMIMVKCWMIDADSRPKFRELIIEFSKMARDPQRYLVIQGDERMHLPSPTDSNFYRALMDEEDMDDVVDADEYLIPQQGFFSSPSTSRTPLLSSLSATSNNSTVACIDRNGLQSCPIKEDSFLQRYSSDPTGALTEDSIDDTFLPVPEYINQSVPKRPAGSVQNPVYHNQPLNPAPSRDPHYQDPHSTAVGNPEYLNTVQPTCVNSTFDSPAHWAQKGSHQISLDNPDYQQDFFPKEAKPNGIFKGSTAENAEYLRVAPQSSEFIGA
Numeric answer only, unit nM assumed.

Some entries whose results are on file:
1. C#Cc1c(-c2cnc3ccccc3c2)c2c(N)ncnc2n1C12CCC(NC(=O)OCc3cnccn3)(CC1)C2 [Example 59]
1.7
2. C#Cc1c(-c2cnc3ccccc3c2)c2c(N)ncnc2n1C12CCC(NC(=O)c3cnc4ccccn34)(CC1)C2 [Example 64]
0.32

Please list IC50 recorded for the molecule C#Cc1c(-c2cnc3ccccc3c2)c2c(N)ncnc2n1C12CCC(NC(=O)c3cccc[n+]3[O-])(CC1)C2 [Example 60]
0.48

Please list IC50 recorded for the molecule C#Cc1c(-c2cnc3ccccc3c2)c2c(N)ncnc2n1C12CCC(NC(=O)c3cnc(CNC)cn3)(CC1)C2 [Example 67]
0.37

Please list IC50 recorded for the molecule C#Cc1c(-c2cnc3ccccc3c2)c2c(N)ncnc2n1C12CCC(NC(=O)N3CCOCC3)(CC1)C2 [Example 61]
1.1

Please list IC50 recorded for the molecule C#Cc1c(-c2cnc3ccccc3c2)c2c(N)ncnc2n1C12CCC(NC(=O)c3cnc(CN4CCOCC4)cn3)(CC1)C2 [Example 69]
0.59

Please list IC50 recorded for the molecule C#Cc1c(-c2cnc3ccccc3c2)c2c(N)ncnc2n1C12CCC(NC(=O)c3cnc(CN(C)C)cn3)(CC1)C2 [Example 68]
0.36

Please list IC50 recorded for the molecule C#Cc1c(-c2cnc3ccccc3c2)c2c(N)ncnc2n1C12CCC(NC(=O)c3ccc(P(C)(C)=O)cn3)(CC1)C2 [Example 70]
1.6

---

Measured IC50 by item
target: human EGFR (d746-750/C797S) (Homo sapiens, UniProt P00533, C797S/DEL746-750); construct: purchased SignalChem; assay: Inhibitory activity against EGFR (d746-750/C797S) kinase; type: biochemical; settings: Test Example 1, Table 4; ATP 14 μM, 60 minutes
Sequence (P00533 with tags, fused parts or gaps DEL746-750/C797S): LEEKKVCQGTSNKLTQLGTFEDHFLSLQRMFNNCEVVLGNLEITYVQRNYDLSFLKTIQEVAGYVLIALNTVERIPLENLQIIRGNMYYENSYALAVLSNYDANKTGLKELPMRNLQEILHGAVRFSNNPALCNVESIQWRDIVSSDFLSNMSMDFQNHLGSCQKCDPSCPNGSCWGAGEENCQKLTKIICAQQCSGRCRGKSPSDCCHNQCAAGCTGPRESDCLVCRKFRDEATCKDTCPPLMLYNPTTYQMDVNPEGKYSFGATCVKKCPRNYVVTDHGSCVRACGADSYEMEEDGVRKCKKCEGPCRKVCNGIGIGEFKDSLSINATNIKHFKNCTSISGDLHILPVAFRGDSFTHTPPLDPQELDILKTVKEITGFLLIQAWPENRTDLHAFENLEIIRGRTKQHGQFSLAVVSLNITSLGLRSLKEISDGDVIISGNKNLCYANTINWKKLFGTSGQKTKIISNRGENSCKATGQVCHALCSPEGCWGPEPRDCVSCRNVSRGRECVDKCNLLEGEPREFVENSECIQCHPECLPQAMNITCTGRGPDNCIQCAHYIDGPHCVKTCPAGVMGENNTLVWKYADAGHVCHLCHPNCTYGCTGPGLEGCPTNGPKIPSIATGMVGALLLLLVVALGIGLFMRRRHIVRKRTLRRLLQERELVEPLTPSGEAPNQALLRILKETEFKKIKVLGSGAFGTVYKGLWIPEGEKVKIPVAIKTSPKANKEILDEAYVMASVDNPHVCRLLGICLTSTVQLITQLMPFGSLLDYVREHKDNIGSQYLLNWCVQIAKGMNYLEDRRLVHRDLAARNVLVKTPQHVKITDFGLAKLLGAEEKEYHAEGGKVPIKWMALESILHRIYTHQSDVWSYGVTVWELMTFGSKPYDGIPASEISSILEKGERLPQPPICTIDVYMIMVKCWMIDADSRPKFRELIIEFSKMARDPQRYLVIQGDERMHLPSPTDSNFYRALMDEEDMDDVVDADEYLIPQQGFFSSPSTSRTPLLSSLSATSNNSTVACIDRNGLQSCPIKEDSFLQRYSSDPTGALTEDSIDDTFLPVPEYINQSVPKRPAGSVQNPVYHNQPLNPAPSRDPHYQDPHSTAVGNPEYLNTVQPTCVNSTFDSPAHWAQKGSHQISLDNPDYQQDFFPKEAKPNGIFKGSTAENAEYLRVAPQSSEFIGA

Some entries whose results are on file:
1) C#Cc1c(-c2cnc3ccccc3c2)c2c(N)ncnc2n1C12CCC(NC(=O)c3nccn4ccnc34)(CC1)C2
0.48 nM
2) C#Cc1c(-c2cnc3ccccc3c2)c2c(N)ncnc2n1C12CCC(N3CCN(C)C(=O)C3)(CC1)C2
1.2 nM
3) C#Cc1c(-c2cnc3ccccc3c2)c2c(N)ncnc2n1C12CCC(NC(=O)c3cncc(C#N)c3)(CC1)C2
0.46 nM
4) C#Cc1c(-c2cnc3ccccc3c2)c2c(N)ncnc2n1C12CCC(NC(=O)c3ccco3)(CC1)C2
1.4 nM
5) C#Cc1c(-c2cnc3ccccc3c2)c2c(N)ncnc2n1C12CCC(NC(=O)c3cnccn3)(CC1)C2
0.46 nM

Please list IC50 recorded for the compound `CC#Cc1c(-c2cnc3ccccc3c2)c2c(N)ncnc2n1C12CCC(NC(=O)c3ccnn3C)(CC1)C2`
1.9 nM

Please list IC50 recorded for the compound `C#Cc1c(-c2cnc3ccccc3c2)c2c(N)ncnc2n1C12CCC(NC(=O)c3ncco3)(CC1)C2`
0.43 nM

Please list IC50 recorded for the compound `C#Cc1c(-c2cnc3ccccc3c2)c2c(N)ncnc2n1C12CCC(NC(=O)c3ccc4ncnn4c3)(CC1)C2`
0.45 nM

Please list IC50 recorded for the compound `C#Cc1c(-c2cnc3ccccc3c2)c2c(N)ncnc2n1C12CCC(CNC(=O)c3ccnn3C)(CC1)C2`
0.67 nM

Please list IC50 recorded for the compound `C#Cc1c(-c2cnc3ccccc3c2)c2c(N)ncnc2n1C12CCC(NC(=O)c3ccnn3C)(CC1)C2`
0.5 nM

Please list IC50 recorded for the compound `C#Cc1c(-c2cnc3ccccc3c2)c2c(N)ncnc2n1C12CCC(NC(=O)c3ccnn3CCOC)(CC1)C2`
0.61 nM

Please list IC50 recorded for the compound `C#Cc1c(-c2cnc3ccccc3c2)c2c(N)ncnc2n1C12CCC(NC(=O)c3ccnn3C)(CC1)CC2`
2.1 nM

Please list IC50 recorded for the compound `C#Cc1c(-c2cnc3ccccc3c2)c2c(N)ncnc2n1C12CCC(NC(=O)c3ncccn3)(CC1)C2`
0.83 nM

Please list IC50 recorded for the compound `C#Cc1c(-c2cnc3ccccc3c2)c2c(N)ncnc2n1C12CCC(CNCCF)(CC1)C2`
1.5 nM

Please list IC50 recorded for the compound `C#Cc1c(-c2cnc3ccccc3c2)c2c(N)ncnc2n1C12CCC(CO)(CC1)C2`
0.62 nM

Please list IC50 recorded for the compound `C#Cc1c(-c2cnc3ccccc3c2)c2c(N)ncnc2n1C12CCC(NC(C)=O)(CC1)C2`
0.75 nM

Please list IC50 recorded for the compound `C#Cc1c(-c2cnc3ccccc3c2)c2c(N)ncnc2n1C12CCC(NC(=O)n3cccn3)(CC1)C2`
0.78 nM

Please list IC50 recorded for the compound `C#Cc1c(-c2cnc3ccccc3c2)c2c(N)ncnc2n1C12CCC(NC(=O)OCC)(CC1)C2`
2.4 nM

Please list IC50 recorded for the compound `C#Cc1c(-c2cnc3ccccc3c2)c2c(N)ncnc2n1C12CCC(NC(=S)NCC)(CC1)C2`
1.5 nM

Please list IC50 recorded for the compound `C#Cc1c(-c2cnc3ccccc3c2)c2c(N)ncnc2n1C12CCC(NC(=O)c3ccnn3C3CC3)(CC1)C2`
0.68 nM

Please list IC50 recorded for the compound `C#Cc1c(-c2cnc3ccccc3c2)c2c(N)ncnc2n1C12CCC(NC(=O)c3cc(S(C)(=O)=O)ccn3)(CC1)C2`
0.64 nM

Please list IC50 recorded for the compound C#Cc1c(-c2cnc3ccccc3c2)c2c(N)ncnc2n1[C@@H]1CCN(C(=O)C=C)C1 [Comparative Example B, reference compound]
93 nM
